Target: Clostridium difficile toxin A (Clostridioides difficile …, UniProt P16154)
Assay: SPR
Conditions: both partners purified
READOUT: Kd (nM)
// return numeric value only (unit: nM, not printed)

Problem: Give the reported Kd for this binder. A5.1m (VHH) VHH: QVKLEESGGGLVQAGGSLRLSCAASGRTFSMYRMGWFRQAPGKEREFVCVITRNGSSTYYADSVKGRFTCSRDNAKNTVYLQMNSLKPEDTALYYCAATSGSSYLDAAHVYDYWGQGTQVTVSS
Solution: 17

Problem: Supply reported Kd belonging to this binder: A26.8m (VHH) VHH: QVKLEESGGGLVQAGGSLRLSCAASERTFSRYPVAWFRQAPGAEREFVCVISSTGTSTYYADSVKGRFTCSRDNAKVTVYLQMNNLKREDTAVYFCAVNSQRTRLQDPNEYDYWGQGTQVTVSS
Solution: 28

Problem: Give Kd for the following binder: A20.1m (VHH) VHH: QVQLVESGGGLAQAGGSLRLSCAASGRTFSMDPMAWFRQPPGKEREFVCAGSSTGRTTYYADSVKGRFTCSRDNAKNTVYLQMNSLKPEDTAVYYCAAAPYGANWYRDEYAYWGQGTQVTVSS
Solution: 9.2

Problem: Entry A4.2m (VHH) VHH: QVKLEESGGGLVQAGGSLRLSCAASGRTFNTLSMGWFRQAPGKEREFVCAVSRSGGSTYYADSVKGRFTCSRDNAKNTVYLQMNSLKPEDTAVYYCAAAATKSNTTAYRLSFDYWGQGTQVTVSS needs its Kd filled in; supply it.
Solution: 20
